# pIC50 per entry
- tested.on: PI3Kδ (p110δ/p85α) Recombinant Human Protein (Homo sapiens (Human), UniProt O00329)
- Sequence (O00329 whole entry): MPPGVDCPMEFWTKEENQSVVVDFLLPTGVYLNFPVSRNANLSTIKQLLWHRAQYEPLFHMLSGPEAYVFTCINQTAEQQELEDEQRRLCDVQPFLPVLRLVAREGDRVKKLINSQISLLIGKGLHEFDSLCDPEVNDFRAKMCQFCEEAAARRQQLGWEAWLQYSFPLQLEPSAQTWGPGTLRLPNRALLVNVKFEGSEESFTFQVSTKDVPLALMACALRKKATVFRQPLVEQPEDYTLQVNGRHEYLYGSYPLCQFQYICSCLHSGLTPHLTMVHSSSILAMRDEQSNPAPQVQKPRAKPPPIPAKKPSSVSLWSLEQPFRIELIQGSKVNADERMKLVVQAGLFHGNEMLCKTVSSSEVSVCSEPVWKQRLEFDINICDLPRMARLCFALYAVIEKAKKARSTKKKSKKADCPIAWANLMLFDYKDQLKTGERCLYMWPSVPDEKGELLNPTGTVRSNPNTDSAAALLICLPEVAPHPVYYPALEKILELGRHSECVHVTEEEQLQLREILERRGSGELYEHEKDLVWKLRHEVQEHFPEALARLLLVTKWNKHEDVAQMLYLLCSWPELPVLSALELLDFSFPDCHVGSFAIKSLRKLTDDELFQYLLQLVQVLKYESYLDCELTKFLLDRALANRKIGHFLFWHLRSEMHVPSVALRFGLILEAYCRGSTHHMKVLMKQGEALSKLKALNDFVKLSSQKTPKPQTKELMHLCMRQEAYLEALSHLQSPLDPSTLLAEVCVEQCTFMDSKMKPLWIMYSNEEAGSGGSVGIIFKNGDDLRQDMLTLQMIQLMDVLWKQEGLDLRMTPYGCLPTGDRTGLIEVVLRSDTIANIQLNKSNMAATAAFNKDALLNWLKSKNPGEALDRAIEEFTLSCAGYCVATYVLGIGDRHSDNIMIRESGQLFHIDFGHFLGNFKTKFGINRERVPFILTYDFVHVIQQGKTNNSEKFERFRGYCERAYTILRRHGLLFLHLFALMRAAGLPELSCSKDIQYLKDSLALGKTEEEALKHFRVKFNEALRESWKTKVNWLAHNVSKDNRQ
- Sequence (P27986 whole entry partner): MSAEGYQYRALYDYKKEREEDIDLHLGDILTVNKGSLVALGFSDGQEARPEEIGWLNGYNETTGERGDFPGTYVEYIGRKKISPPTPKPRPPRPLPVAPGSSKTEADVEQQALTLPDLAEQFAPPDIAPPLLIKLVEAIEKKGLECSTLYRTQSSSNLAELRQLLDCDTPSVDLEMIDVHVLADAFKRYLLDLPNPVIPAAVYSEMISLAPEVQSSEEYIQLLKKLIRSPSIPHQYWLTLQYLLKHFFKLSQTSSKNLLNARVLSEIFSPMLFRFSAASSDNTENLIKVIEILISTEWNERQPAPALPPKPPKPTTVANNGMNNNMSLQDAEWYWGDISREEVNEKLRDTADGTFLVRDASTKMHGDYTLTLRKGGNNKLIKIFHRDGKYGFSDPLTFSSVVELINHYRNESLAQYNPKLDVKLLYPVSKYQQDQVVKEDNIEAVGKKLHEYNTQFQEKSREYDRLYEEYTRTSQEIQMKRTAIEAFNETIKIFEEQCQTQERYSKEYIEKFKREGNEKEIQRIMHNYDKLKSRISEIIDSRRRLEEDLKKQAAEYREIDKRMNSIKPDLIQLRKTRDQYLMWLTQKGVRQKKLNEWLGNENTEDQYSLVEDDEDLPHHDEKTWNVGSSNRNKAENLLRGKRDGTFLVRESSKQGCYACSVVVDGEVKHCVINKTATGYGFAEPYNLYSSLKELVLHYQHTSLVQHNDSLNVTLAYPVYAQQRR
- assay.details: PI3Kδ scintillation proximity assay
- Assay type: biochemical
- protocol.conditions: 2 μM ATP, 20 μM PIP2
pIC50: −log10 of the molar value. Where a name gives a salt, the structure may show the parent alone.

input: # query: pIC50 of entry CCOc1c(C(C)NC(=O)c2c(N)nn3cccnc23)cc(Cl)c2cn(CC#N)nc12 (stereo not shown) [Example 7a, trifluoroacetate]
output: ≤ 5.70

input: Entry CC(NC(=O)c1c(N)nn2cccnc12)c1cc(Cl)c2c(Cl)cnn2c1N1CCS(=O)(=O)C(C)(C)C1 (stereo not shown) [Example 116, trifluoroacetate] : reported pIC50 = ?
output: > 7.00
